- Tested System: [35S]-TBPS binding in rat brain cortical membranes
- Protocol Summary: Steroid inhibition of [35S]-TBPS binding, rat brain cortical membranes
- Assay Context: 3 nM [35S]-TBPS, in the presence of 5 μM GABA, read-out: 35S-TBPS Radioligand Displacement (IC50)
pIC50: −log10 of the molar value.
pIC50 values for the molecules below.

Request: Which pIC50 value belongs to `COC[C@]12CC[C@@](C)(O)C[C@@H]1CC[C@H]1[C@@H]3CC[C@H](C(=O)Cn4ncc5ncccc54)[C@@]3(C)CC[C@@H]12` ?
Response: 7.00 to 7.30

Request: Which pIC50 value belongs to `COC[C@]12CC[C@@](C)(O)C[C@@H]1CC[C@H]1[C@@H]3CC[C@H](C(=O)Cn4nnc5cc(OC(F)(F)F)ccc54)[C@@]3(C)CC[C@@H]12` ?
Response: 7.00 to 7.30

Request: Which pIC50 value belongs to `COC[C@]12CC[C@@](C)(O)C[C@H]1CC[C@H]1[C@@H]3CC[C@H](C(=O)Cn4nccn4)[C@@]3(C)CC[C@@H]12` ?
Response: 7.30 to 8.00

Request: Which pIC50 value belongs to `COC[C@]12CC[C@@](C)(O)C[C@@H]1CC[C@H]1[C@@H]3CC[C@H](C(=O)Cn4nnc5c(F)c(F)ccc54)[C@@]3(C)CC[C@@H]12` ?
Response: 7.00 to 7.30

Request: Which pIC50 value belongs to `COC[C@]12CC[C@@](C)(O)C[C@@H]1CC[C@H]1[C@@H]3CC[C@H](C(=O)Cn4cnc(C)c4)[C@@]3(C)CC[C@@H]12` ?
Response: 6.30 to 7.00

Request: Which pIC50 value belongs to `COC[C@]12CC[C@@](C)(O)C[C@@H]1CC[C@H]1[C@@H]3CC[C@H](C(=O)Cn4nnc5cccc(Cl)c54)[C@@]3(C)CC[C@@H]12` ?
Response: 7.30 to 8.00

Request: Which pIC50 value belongs to `COC[C@]12CC[C@](O)(C(F)(F)F)C[C@H]1CC[C@H]1[C@@H]3CC[C@H](C(=O)Cn4nnc5c(F)c(F)ccc54)[C@@]3(C)CC[C@@H]12` ?
Response: 6.30 to 7.00

Request: Which pIC50 value belongs to `COC[C@]12CC[C@@](C)(O)C[C@@H]1CC[C@H]1[C@@H]3CC[C@H](C(=O)Cn4cc5ncc(Cl)cc5n4)[C@@]3(C)CC[C@@H]12` ?
Response: 7.30 to 8.00

Request: Which pIC50 value belongs to `COC[C@]12CC[C@@](C)(O)C[C@@H]1CC[C@H]1[C@@H]3CC[C@H](C(=O)Cn4nnc5cccc(F)c54)[C@@]3(C)CC[C@@H]12` ?
Response: 7.30 to 8.00

Request: Which pIC50 value belongs to `CCOC[C@]12CC[C@@](C)(O)C[C@@H]1CC[C@H]1[C@@H]3CC[C@H](C(=O)Cn4nnc5cc(Cl)ccc54)[C@@]3(C)CC[C@@H]12` ?
Response: 7.30 to 8.00

Request: Which pIC50 value belongs to `COC[C@]12CC[C@@](C)(O)C[C@@H]1CC[C@H]1[C@@H]3CC[C@H](C(=O)Cn4nnc5ccc(F)cc54)[C@@]3(C)CC[C@@H]12` ?
Response: 7.30 to 8.00

Request: Which pIC50 value belongs to `COC[C@]12CC[C@@](C)(O)C[C@H]1CC[C@H]1[C@@H]3CC[C@H](C(=O)Cn4nnc5ccc(F)cc54)[C@@]3(C)CC[C@@H]12` ?
Response: > 8.00
